The values you see were collected from patent US20260200990A1.

Protocol Summary: Stability of peptide mixtures under long term and accelerated storage (UPLC)
Format: physicochemical
Recorded Conditions: peptide in mixture of 6 peptides; Storage at −20 ± 5° C., T2M
Description: To examine the effect on stability of peptides that contain cystine (oxidized, C (C)) present in a mixture of 6 peptides, two examples of mixtures of both non-cysteine-containing (NCC1-6) and cystine-containing (SEQ ID NO: 1-6) peptides were assessed. […] The purity, the level of impurities, and the quantification per peptide of both mixtures are determined by reversed phase rapid UPLC using a mobile phase gradient of ACN/IPA and water with TFA, and UV detection at λ=220 nm. […]
Ends that are not written are not given here.
Documented Assay (net peptide content) (mg/vial) across a set of sequences

Documented Assay (net peptide content) (mg/vial) of LSAMSTTDLEAYFKDCLFKDWEELG [SEQ ID 2] : 0.25 mg/vial

Documented Assay (net peptide content) (mg/vial) of VVNHYFQTRHYLHTLWKAGILYKRETTRSASFCGSPYSW (VVNHYFQTRHYLHTLWKAGILYKRETTRSASFC(Cys)GSPYSW) [SEQ ID 5, HBV Pol fragment SLP with cysteinylated cysteine] : 0.20 mg/vial

Documented Assay (net peptide content) (mg/vial) of VLSRKYTSFPWLLGCTANWILRGTSFVYVPSALNPA [Cystine(C(C)) containing SEQ ID NO: 3] (VLSRKYTSFPWLLGC(Cys)TANWILRGTSFVYVPSALNPA) [HBV Pol fragment SLP with cysteinylated cysteine] : 0.24 mg/vial

Documented Assay (net peptide content) (mg/vial) of AARLCCQLDPARDVLCLRPVGAESR [Cystine(C(C)) containing SEQ ID NO: 4] : 0.20 mg/vial

Documented Assay (net peptide content) (mg/vial) of YPALMPLYACIQAKQAFTFSPTYKAFLSKQYMNLYPVAR (cysteinylated cysteine) [SEQ ID 6, HBV Pol fragment SLP with cysteinylated cysteine] : 0.20 mg/vial

Documented Assay (net peptide content) (mg/vial) of HLSLRGLPVCAFSSAGPCALRFTSA [Cystine(C(C)) containing SEQ ID NO: 1] : 0.24 mg/vial
